For each record, write down the corresponding Ratio.
Assay: Selectivity of compound was determined as the ratio of Ki of Glutamate receptor 6 to that of Glutamate receptor 5
Numbers only.

Reference set (2 entries):
N[C@@H](CC(C(=O)O)=C1CCCCC1)C(=O)O; 49.7
CC1(C)CCC/C1=C(\C[C@H](N)C(=O)O)C(=O)O; 12.8

Give Ratio for all compounds that follow.
1. N[C@@H](C/C(=C\CCC(c1ccccc1)c1ccccc1)C(=O)O)C(=O)O
2. C/C=C(/C[C@H](N)C(=O)O)C(=O)O
3. N[C@@H](C/C(=C/CCC(c1ccccc1)c1ccccc1)C(=O)O)C(=O)O

1. 100
2. 1.14
3. 10

----------
Molecular target: Glutamate receptor ionotropic, kainate 2 (Homo sapiens, UniProt Q13002)
Sequence (Q13002 whole entry): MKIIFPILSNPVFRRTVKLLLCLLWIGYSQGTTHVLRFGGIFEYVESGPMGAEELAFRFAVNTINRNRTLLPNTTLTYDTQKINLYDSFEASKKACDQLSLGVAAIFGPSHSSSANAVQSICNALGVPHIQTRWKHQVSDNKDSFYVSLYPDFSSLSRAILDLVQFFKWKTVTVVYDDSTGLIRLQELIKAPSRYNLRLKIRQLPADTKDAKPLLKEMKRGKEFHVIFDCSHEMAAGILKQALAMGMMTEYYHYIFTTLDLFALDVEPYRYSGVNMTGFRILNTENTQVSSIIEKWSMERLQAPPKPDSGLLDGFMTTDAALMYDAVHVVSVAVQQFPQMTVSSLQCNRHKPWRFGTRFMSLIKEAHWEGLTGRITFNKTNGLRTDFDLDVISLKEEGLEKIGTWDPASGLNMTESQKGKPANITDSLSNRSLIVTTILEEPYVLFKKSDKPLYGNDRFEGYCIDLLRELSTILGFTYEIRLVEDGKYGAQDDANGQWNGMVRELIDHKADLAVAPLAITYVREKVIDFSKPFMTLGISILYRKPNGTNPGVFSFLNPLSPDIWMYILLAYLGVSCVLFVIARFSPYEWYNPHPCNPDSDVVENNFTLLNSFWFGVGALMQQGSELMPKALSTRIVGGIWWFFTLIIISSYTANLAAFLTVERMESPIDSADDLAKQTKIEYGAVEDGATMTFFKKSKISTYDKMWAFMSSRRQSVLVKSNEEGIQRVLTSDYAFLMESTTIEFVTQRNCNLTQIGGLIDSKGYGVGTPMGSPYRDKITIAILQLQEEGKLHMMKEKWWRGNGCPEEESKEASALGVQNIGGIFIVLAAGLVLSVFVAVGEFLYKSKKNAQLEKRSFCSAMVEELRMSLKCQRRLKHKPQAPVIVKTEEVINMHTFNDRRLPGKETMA
For each record, write down the corresponding pKi.
Give bare numbers, as −log10 of the molar value.

Reference set (5 entries):
C=C(C[C@H](N)C(=O)O)C(=O)O; 6.35
C/C=C/C=C(/C[C@H](N)C(=O)O)C(=O)O; 4.79
CCC/C=C(/C[C@H](N)C(=O)O)C(=O)O; 4.24
CCC(CC)=C(C[C@H](N)C(=O)O)C(=O)O; 3.68
N[C@@H](C/C(=C\C1CCCC1)C(=O)O)C(=O)O; 4.06

Give pKi for all compounds that follow.
1. C/C=C(/C[C@H](N)C(=O)O)C(=O)O
2. CC(C)/C=C(\C[C@H](N)C(=O)O)C(=O)O
3. CC1(C)CCC/C1=C(\C[C@H](N)C(=O)O)C(=O)O

1: 5.60; 2: 4.08; 3: 4.33

----------
For each record, write down the corresponding pKi.
Molecular target: Glutamate receptor 4 (Homo sapiens)
Sequence (P48058 whole entry): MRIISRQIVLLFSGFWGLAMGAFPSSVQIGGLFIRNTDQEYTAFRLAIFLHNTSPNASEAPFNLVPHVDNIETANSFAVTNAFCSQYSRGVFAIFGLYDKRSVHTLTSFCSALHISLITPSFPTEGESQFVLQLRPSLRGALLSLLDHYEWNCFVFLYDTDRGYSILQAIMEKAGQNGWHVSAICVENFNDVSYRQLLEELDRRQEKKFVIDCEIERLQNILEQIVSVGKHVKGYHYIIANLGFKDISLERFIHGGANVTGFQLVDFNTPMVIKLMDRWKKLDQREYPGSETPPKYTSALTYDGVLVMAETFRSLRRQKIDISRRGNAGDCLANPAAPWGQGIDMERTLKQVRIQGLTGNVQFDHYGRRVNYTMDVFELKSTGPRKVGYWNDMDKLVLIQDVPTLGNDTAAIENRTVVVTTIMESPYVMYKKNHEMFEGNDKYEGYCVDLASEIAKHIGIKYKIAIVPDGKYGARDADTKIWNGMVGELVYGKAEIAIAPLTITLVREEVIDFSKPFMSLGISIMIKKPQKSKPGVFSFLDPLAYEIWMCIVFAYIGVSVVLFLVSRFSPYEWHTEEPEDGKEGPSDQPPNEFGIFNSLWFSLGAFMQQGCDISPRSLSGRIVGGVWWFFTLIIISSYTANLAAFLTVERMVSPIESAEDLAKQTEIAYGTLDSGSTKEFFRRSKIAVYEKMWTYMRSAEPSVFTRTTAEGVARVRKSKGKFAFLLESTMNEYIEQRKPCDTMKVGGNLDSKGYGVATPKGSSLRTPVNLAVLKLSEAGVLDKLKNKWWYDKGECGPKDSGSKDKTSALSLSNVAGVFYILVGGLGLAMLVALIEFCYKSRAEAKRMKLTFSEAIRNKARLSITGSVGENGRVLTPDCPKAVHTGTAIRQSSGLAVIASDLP
Assay: biochemical
Description: Binding affinity of compound was determined against Ionotropic glutamate receptor AMPA 4 using cell membranes prepared from HEK293 cells
Numbers only, as −log10 of the molar value.

CC(C)/C=C(\C[C@H](N)C(=O)O)C(=O)O; 5.25

Recorded pKi for `N[C@@H](CC(C(=O)O)=C1CCCC1)C(=O)O` with Glutamate receptor 4 (Homo sapiens), please?
6.27

----------
Record set of Ki for target or system Glutamate receptor ionotropic, kainate 1 (Homo sapiens, UniProt P39086).

N[C@@H](C/C(=C/CCC(c1ccccc1)c1ccccc1)C(=O)O)C(=O)O; > 1000 nM

Sample `N[C@@H](C/C(=C\CCC(c1ccccc1)c1ccccc1)C(=O)O)C(=O)O` — what was its Ki?
> 1000 nM

----------
Biological target: Glutamate receptor ionotropic, kainate 5 (Homo sapiens)
Sequence (Q16478 whole entry): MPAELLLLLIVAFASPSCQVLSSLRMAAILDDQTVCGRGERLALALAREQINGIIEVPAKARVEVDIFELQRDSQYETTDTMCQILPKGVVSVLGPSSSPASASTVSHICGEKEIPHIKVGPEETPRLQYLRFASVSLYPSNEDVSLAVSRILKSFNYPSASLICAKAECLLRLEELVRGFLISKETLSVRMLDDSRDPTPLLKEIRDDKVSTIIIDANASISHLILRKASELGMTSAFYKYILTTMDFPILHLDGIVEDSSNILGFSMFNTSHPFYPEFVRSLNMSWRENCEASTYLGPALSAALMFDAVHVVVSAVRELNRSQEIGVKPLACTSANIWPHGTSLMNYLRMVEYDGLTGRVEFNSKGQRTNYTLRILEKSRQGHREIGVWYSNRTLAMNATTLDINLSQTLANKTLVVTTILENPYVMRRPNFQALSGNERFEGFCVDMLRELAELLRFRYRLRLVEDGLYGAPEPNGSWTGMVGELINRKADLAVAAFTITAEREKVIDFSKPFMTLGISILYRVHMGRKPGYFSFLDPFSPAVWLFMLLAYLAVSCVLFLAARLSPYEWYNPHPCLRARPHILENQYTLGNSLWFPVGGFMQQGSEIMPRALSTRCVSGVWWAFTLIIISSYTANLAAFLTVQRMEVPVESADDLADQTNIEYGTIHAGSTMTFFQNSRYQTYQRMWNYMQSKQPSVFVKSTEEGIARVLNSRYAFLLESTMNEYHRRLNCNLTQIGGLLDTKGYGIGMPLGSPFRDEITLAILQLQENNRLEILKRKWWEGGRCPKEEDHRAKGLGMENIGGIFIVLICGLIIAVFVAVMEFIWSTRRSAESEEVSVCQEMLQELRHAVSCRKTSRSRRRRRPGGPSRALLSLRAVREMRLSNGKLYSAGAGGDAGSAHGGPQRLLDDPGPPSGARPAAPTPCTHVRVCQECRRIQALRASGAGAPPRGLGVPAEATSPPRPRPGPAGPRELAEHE
Assay: Binding affinity of compound was determined against Glutamate receptor (KA2) using cell membranes prepared from HEK293 cells
Readout type: Ki (µM)
Numbers only, in µM.

Reference set (3 entries):
C=C(C)[C@H]1CN[C@H](C(=O)O)[C@H]1CC(=O)O; 0.08
CC(C)/C=C(/C[C@H](N)C(=O)O)C(=O)O; 82.2
N[C@@H](CC(C(=O)O)=C1CCCC1)C(=O)O; 10

Moving on to another molecule below.
Sample `CCC(CC)=C(C[C@H](N)C(=O)O)C(=O)O` — what was its Ki?
21.4

----------
Target: Glutamate receptor ionotropic, kainate 5 (Homo sapiens, UniProt Q16478)
Test: Binding affinity of compound was determined against KA2 using cell membranes prepared from HEK293 cells
Readout type: pKi
Give bare numbers, as −log10 of the molar value.

Sample `CC(C)/C=C(\C[C@H](N)C(=O)O)C(=O)O` — what was its pKi?
5.12

----------
Assay: Selectivity of compound was determined as the ratio of Ki of Glutamate receptor 6 to that of Glutamate receptor 5
Readout type: Ratio

CC(C)=C(C[C@H](N)C(=O)O)C(=O)O; > 28.8
N[C@@H](C/C(=C\C1CCCCC1)C(=O)O)C(=O)O; > 16.5

Sample `CC1(C)CCC/C1=C(/C[C@H](N)C(=O)O)C(=O)O` — what was its Ratio?
> 424

----------
Record set of Ki for target or system Glutamate receptor ionotropic, kainate 2 (Homo sapiens, UniProt Q13002).

Reference set (2 entries):
CC(C)/C=C(/C[C@H](N)C(=O)O)C(=O)O; > 500 µM
N[C@@H](CC(C(=O)O)=C1CCCC1)C(=O)O; > 100 µM

Moving on to another compound below.
Sample `N[C@@H](C/C(=C\C=C\c1ccccc1)C(=O)O)C(=O)O` — what was its Ki?
> 100 µM
